- Tested on: MDA-MB-157
- run description: Anti-proliferation assay (ATPLite), Chalice synergy score
- Format: cell-based
- condition context: Compound 1 in combination with second active agent, mean self-cross + 2σ threshold 4.68
- Excerpt: Cells were thawed from a liquid nitrogen preserved state. The calculation for synergy score is provided below. If T≧V0:100*[1−(T−V0)/(V−V0)]
Field 'label' (enum: 1 (yes) / 0 (no)). Set to 1 (yes) when Synergy score is strictly under 1; else 0 (no).

chemical_structure=NC(=O)Nc1cc(-c2cccc(F)c2)sc1C(=O)N[C@H]1CCCNC1 target_or_test_system=MDA-MB-157 label_class="0 (no)"
chemical_structure=C=CC(=O)N1CCC[C@@H](n2nc(-c3ccc(Oc4ccccc4)cc3)c3c(N)ncnc32)C1 target_or_test_system=MDA-MB-157 label_class="0 (no)"
chemical_structure=COc1ccc(C2=N[C@@H](c3ccc(Cl)cc3)[C@@H](c3ccc(Cl)cc3)N2C(=O)N2CCNC(=O)C2)c(OC(C)C)c1 target_or_test_system=MDA-MB-157 label_class="1 (yes)"
chemical_structure=COc1ccc(Cl)c(Nc2nc3ccccc3nc2NS(=O)(=O)c2cccc(NC(=O)C(C)(C)N)c2)c1 target_or_test_system=MDA-MB-157 label_class="0 (no)"
chemical_structure=N#Cc1c(O)c2c(-c3ccc(-c4ccccc4O)cc3)csc2[nH]c1=O target_or_test_system=MDA-MB-157 label_class="1 (yes)"
chemical_structure=COc1cc2c(NC3CCN(C4CCCCC4)CC3)nc(N3CCCN(C(C)C)CC3)nc2cc1OCCCN1CCCCC1 target_or_test_system=MDA-MB-157 label_class="0 (no)"
chemical_structure=O=C(O)c1ccc2c(c1)nc(Nc1cccc(Cl)c1)c1ccncc12 target_or_test_system=MDA-MB-157 label_class="0 (no)"
chemical_structure=NC(=O)[C@@H](CCC(F)(F)F)N(Cc1ccc(-c2ncon2)cc1F)S(=O)(=O)c1ccc(Cl)cc1 target_or_test_system=MDA-MB-157 label_class="1 (yes)"

----------
- System: MDA-MB-157
- run description: Anti-proliferation assay (ATPLite), Chalice synergy score
- Assay type: cell-based
- condition context: Compound 1 in combination with second active agent, mean self-cross + 2σ threshold 4.68
Structures can show the parent of a compound that is named as a salt.
measure name: Synergy score

molecule="COc1ccc(-c2cc3nccn3c(Nc3ncccc3C(N)=O)n2)cc1OC.Cl [BAY61-3606 Hydrochloride]" recorded_result=1.49
molecule=CC[C@@H]1C(=O)N(C)c2cnc(Nc3ccc(C(=O)NC4CCN(C)CC4)cc3OC)nc2N1C1CCCC1 recorded_result=5.08
molecule=C=CCn1c(=O)c2cnc(Nc3ccc(N4CCN(C)CC4)cc3)nc2n1-c1cccc(C(C)(C)O)n1 recorded_result=2.68
molecule=CO[C@H]1/C=C\C=C(/C)C(=O)NC2=CC(=O)C(NCCN(C)C)=C(C[C@@H](C)C[C@H](OC)[C@H](O)[C@@H](C)/C=C(\C)[C@@H]1OC(N)=O)C2=O recorded_result=6.09
molecule=O=C(NOC[C@H](O)CO)c1ccc(F)c(F)c1Nc1ccc(I)cc1F recorded_result=8.05
molecule="Nc1ccn([C@@H]2O[C@H](CO)[C@@H](O)C2(F)F)c(=O)n1 [Gemcitabine Hydrochloride]" recorded_result=2.53
molecule=CC(C)(C)Cn1c(N)nc2ccc(-c3[nH]c(C(C)(C)C)nc3-c3ccc(F)cc3)nc21 recorded_result=5.64

Data provenance: patent US9737535B2
